- protocol-notes: kanamycin survival loss of SKKanGAS strain – BacTiter-Glo luminescence, streptokinase expression inhibitor project, primary screen (AID 1662);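 also: strain carries kanamycin resistance gene driven by streptokinase promoter and grows in 40 µg/ml kanamycin; loss of luminescence reflects streptokinase promoter inhibition or plain growth inhibition; 0% = median of DMSO wells and 100% = positive control at its reference dose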
- measurement-setup: S. pyogenes SKKanGAS, kanamycin growth, 6 h, at 7.5 µM, stronger effect = higher value
Out of some 300,000 compounds screened, about 4,000 (1.3%) were called active. The list comes from a sample in which actives are over-represented; it also holds close analogues and randomly drawn compounds.
readout-type: inhibition (%)
Answers are plain numbers, in %.

Below are worked cases with known answers.
molecule: CC(=O)Nc1ccc(NC(=O)CSc2ncnc3c2cnn3Cc2ccccc2)cc1
inhibition, %: 3.94
//
molecule: O=C(Nc1ccccc1F)c1ccccc1-c1ccc(C(F)(F)F)cc1
inhibition, %: -10.9
//
molecule: O=C(Cc1ccc(S(=O)(=O)N2CCOCC2)s1)NCCOc1ccccc1F
inhibition, %: 2.98
//
molecule: Cc1ccccc1C(=O)Nc1ccccc1Sc1ccccc1
inhibition, %: 25.4

Take each entry in turn and give its inhibition.
1. COCCCNC(=O)CSc1nc2ccc(N3CCOCC3)cc2c(=O)n1CCc1ccccc1
2. COC(=O)c1cc(OC)ccc1-c1ccc(OC)cc1

34.6
11

* * *

- protocol-notes: kanamycin survival loss of SKKanGAS strain – BacTiter-Glo luminescence, streptokinase expression inhibitor project, primary screen (AID 1662);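 also: strain carries kanamycin resistance gene driven by streptokinase promoter and grows in 40 µg/ml kanamycin; loss of luminescence reflects streptokinase promoter inhibition or plain growth inhibition; 0% = median of DMSO wells and 100% = positive control at its reference dose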
- measurement-setup: S. pyogenes SKKanGAS, kanamycin growth, 6 h, at 7.5 µM, stronger effect = higher value
About 4,000 (1.3%) of roughly 300,000 compounds were called active. What follows is part of a selection rich in actives, with near analogues and random picks from the rest.
readout-type: inhibition (%)
Numbers only, in %.

Example entries and their recorded answers appear below.
compound: CCCC(=O)NC(Nc1ccccc1OC)C(Cl)(Cl)Cl (stereo unspecified)
inhibition, %: 1.6
--
compound: CN(C)CCCN(C(=O)c1ccc(S(=O)(=O)N2CCCCCC2)cc1)c1nc2cc3c(cc2s1)OCCO3
inhibition, %: -2.65
--
compound: COC(=O)N/N=C/c1ccc(/C=N/NC(=O)OC)cc1
inhibition, %: -10.9
--
compound: COC(=O)N/N=C/c1ccc(-c2ccc(Cl)c(Cl)c2)o1
inhibition, %: -12.4

Return reported inhibition values for all items listed beneath this line.
1. Cc1cc(C)c2c(=O)[nH]c(SCC(=O)Nc3ccc(Br)cc3)nc2n1
2. COCCCNC(=O)C1CC(=O)N(CCc2ccc(F)cc2)C1 (stereo unspecified)

1. 30
2. 1.79

* * *

- protocol-notes: kanamycin survival loss of SKKanGAS strain – BacTiter-Glo luminescence, streptokinase expression inhibitor project, primary screen (AID 1662);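 also: strain carries kanamycin resistance gene driven by streptokinase promoter and grows in 40 µg/ml kanamycin; loss of luminescence reflects streptokinase promoter inhibition or plain growth inhibition; 0% = median of DMSO wells and 100% = positive control at its reference dose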
- measurement-setup: S. pyogenes SKKanGAS, kanamycin growth, 6 h, at 7.5 µM
About 4,000 (1.3%) of roughly 300,000 compounds were called active.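 The calls were made as follows: active = mean replicate score, as percent of positive control median, at least 50; inconclusive = mean below 50 but one replicate at or above 50; inactive = mean and every replicate below 50.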 The sample as a whole holds a higher share of actives than the screen did.
Would you mind answering with one of these outcomes? active, inactive

Some entries whose results are on file:
line-notation: COc1cc(NS(=O)(=O)c2ccc(N=Cc3c(C)[nH]n(-c4ccccc4)c3=O)cc2)nc(OC)n1
assigned-label: inactive
//
line-notation: CN(CC(=O)Nc1c(Cl)cccc1Cl)C(=O)CNC(=O)C1CCCCC1
assigned-label: inactive
//
line-notation: N#CC1(NC(=O)COC(=O)Cc2n[nH]c(=O)c3ccccc23)CCCCC1
assigned-label: inactive
//
line-notation: CCOc1[nH]n(-c2ccc(Cl)cc2)c(=O)c1C=Nc1ccc(O)cc1
assigned-label: inactive
//
line-notation: COc1ccc(-n2cc(-c3ccccc3)c3c(=S)nc[nH]c32)cc1
assigned-label: active
//
line-notation: COc1ccc(-c2cn(-c3ccc(OC)cc3)c(=S)[nH]2)cc1
assigned-label: inactive

Could you check what this test reported for "Cc1nn(C)c(C)c1S(=O)(=O)N1CCC(CO)(Cc2ccc(Cl)cc2)CC1" ? inactive

Query "N#CCSc1nc2ccc(N3CCOCC3)cc2c(=O)n1CCc1ccccc1" next active

Would you mind doing "COc1nc(NC2CCCCC2)nc(N2CCCCCC2)n1" as well? active

Now consider "Cc1[nH]n(-c2cccc(Cl)c2)c(=O)c1-c1ccc(Cl)cc1" . inactive
